Origin of measurements: patent US20130236501A1

Assay: Water solubility of Compound A
Type: physicochemical
VALUE TYPE: solubility

Qu. # return recorded solubility for entry CCCOC(=O)Cc1ccc(OCC(=O)N(CC)CC)c(OCC)c1 [Compound A]
Ans. ~2000 µg/mL
